Target: human S1PR4 (Homo sapiens, UniProt O95977)
Construct: host or cells: CHO-K1
Sequence (O95977 whole entry): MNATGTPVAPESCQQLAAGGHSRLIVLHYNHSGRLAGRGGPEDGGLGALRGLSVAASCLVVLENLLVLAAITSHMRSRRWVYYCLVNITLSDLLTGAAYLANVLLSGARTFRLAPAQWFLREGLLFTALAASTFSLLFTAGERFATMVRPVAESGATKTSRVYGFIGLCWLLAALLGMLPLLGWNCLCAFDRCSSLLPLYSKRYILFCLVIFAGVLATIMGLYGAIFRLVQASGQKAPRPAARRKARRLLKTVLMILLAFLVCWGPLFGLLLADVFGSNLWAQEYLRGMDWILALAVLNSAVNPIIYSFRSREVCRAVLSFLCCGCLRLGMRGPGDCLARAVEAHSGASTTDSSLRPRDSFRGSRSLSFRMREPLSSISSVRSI
Test: Intracellular Ca2+ release (FLIPR) agonist potency, S1P4
Format: cell-based
Conditions: recombinant CHO-K1 cells expressing human S1PR4, aequorin, Gq/i5; Calcium 5 FLIPR; read-out: S1P4 EC50
Catalogue of compounds with associated EC50

| Compound | EC50 |
| --- | --- |
| CCOc1ccc(C#Cc2ccc3c(c2)OCC(N2CC(C(=O)O)C2)C3)cc1 (stereo not drawn) | > 1000 nM |
| COc1ccc(COc2ccc3c(c2)OCC(N2CC(C(=O)O)C2)C3)cc1F (stereo not drawn) | > 1000 nM |
| CN(CCC(=O)O)C1CCc2cc(OCc3ccccc3Cl)ccc2C1 (stereo not drawn) | < 1000 nM |
| CCc1cccc(F)c1COc1ccc2c(c1)OC[C@@H](N1CC(C)(C(=O)O)C1)C2 | < 1000 nM |
| O=C(O)COC1CCc2cc(OCc3cc(F)ccc3F)ccc2C1 (stereo not drawn) | > 1000 nM |
| CC(Oc1ccc2c(c1)OCC(N1CC(C(=O)O)C1)C2)c1ccccc1F (stereo not drawn) | > 1000 nM |
| O=C(O)C1CN(C2COc3cc(OCc4ccccc4F)ccc3C2)C1 (stereo not drawn) | > 1000 nM |
| O=C(O)C12CC(NC3COc4cc(OCc5c(Cl)cccc5Cl)ccc4C3)(C1)C2 (stereo not drawn) | > 1000 nM |
| O=C(O)C1CN(C2COc3cc(OCc4cccc(C(F)(F)F)c4)ccc3C2)C1 (stereo not drawn) | < 1000 nM |
| CCc1cccc(Cl)c1COc1ccc2c(c1)OCC(NCC(=O)O)C2 (stereo not drawn) | < 1000 nM |
| O=C(O)COC1CCc2cc(OCc3ccccc3OC(F)(F)F)ccc2C1 (stereo not drawn) | > 1000 nM |
| CC(NC1CCc2cc(OCc3c(Cl)cccc3Cl)ccc2C1)C(=O)O (stereo not drawn) | < 1000 nM |
| O=C(O)C1CN(C2COc3cc(OCc4cc(Cl)ccc4Cl)ccc3C2)C1 (stereo not drawn) | > 1000 nM |
| CCc1cccc(Cl)c1COc1ccc2c(c1)OCC(N1CCC(C(=O)O)CC1)C2 (stereo not drawn) | < 1000 nM |
| O=C(O)C1CN(C2COc3cc(OCc4ccc5cc(F)ccc5n4)ccc3C2)C1 (stereo not drawn) | > 1000 nM |
| O=C(O)C1CN(C2COc3cc(OCc4c(F)cccc4C(F)(F)F)ccc3C2)C1 (stereo not drawn) | < 1000 nM |
| O=C(O)C1CN(C2COc3cc(C#Cc4c(Cl)cccc4Cl)ccc3C2)C1 (stereo not drawn) | > 1000 nM |
| CCc1cccc(Cl)c1COc1ccc2c(c1)CCC(OCC(=O)O)C2 (stereo not drawn) [Compound 142] | > 1000 nM |
| O=C(O)COC1CCc2cc(OCc3ccc(F)cc3)ccc2C1 (stereo not drawn) | > 1000 nM |
| O=C(O)C1CN(C2COc3cc(C#Cc4c(F)cccc4F)ccc3C2)C1 (stereo not drawn) | < 1000 nM |
| O=C(O)CCOC1CCc2cc(OCc3ccc(Cl)c(Cl)c3)ccc2C1 (stereo not drawn) | > 1000 nM |
| O=C(O)C1CN(C2COc3cc(OCc4cc(F)ccc4C(F)(F)F)ccc3C2)C1 (stereo not drawn) | > 1000 nM |
| COc1cccc(F)c1COc1ccc2c(c1)CCC(OCC(=O)O)C2 (stereo not drawn) | > 1000 nM |
| O=C(O)C1CN(C2COc3cc(C#Cc4cc(F)ccc4F)ccc3C2)C1 (stereo not drawn) | < 1000 nM |
| O=C(O)C1CN(C2COc3cc(-c4ccc(OCc5cccc(F)c5F)cc4)ccc3C2)C1 (stereo not drawn) | > 1000 nM |
| O=C(O)C1CN(C2COc3cc(OCC4CC4)ccc3C2)C1 (stereo not drawn) | > 1000 nM |
| O=C(O)CNC1COc2cc(OCc3c(Cl)cccc3Cl)ccc2C1 (stereo not drawn) | < 1000 nM |
| CCc1cccc(Cl)c1COc1ccc2c(c1)OCC(N1CCC(C(=O)O)C1)C2 (stereo not drawn) | < 1000 nM |
| CCc1cccc(Cl)c1COc1ccc2c(c1)OCC(NC1(CC(=O)O)CCCC1)C2 (stereo not drawn) | < 1000 nM |
| O=C(O)C1CCN(C2COc3cc(OCc4ccccc4)ccc3C2)CC1 (stereo not drawn) | < 1000 nM |
| N#Cc1ccc(COc2ccc3c(c2)OCC(N2CC(C(=O)O)C2)C3)c(F)c1 (stereo not drawn) | > 1000 nM |
| CCc1cccc(F)c1COc1ccc2c(c1)OCC(NC13CC(C(=O)O)(C1)C3)C2 (stereo not drawn) | < 1000 nM |
| O=C(O)CCNC1CCc2cc(C#Cc3cc(F)cc(F)c3)ccc2C1 (stereo not drawn) | < 1000 nM |
| O=C(O)C1CN(C2COc3cc(OCc4c(F)cccc4C4CC4)ccc3C2)C1 (stereo not drawn) | < 1000 nM |
| COc1ccc(F)c(COc2ccc3c(c2)OCC(N2CC(C(=O)O)C2)C3)c1 (stereo not drawn) | > 1000 nM |
| O=C(O)COC1CCc2cc(OCc3cc(Cl)ccc3F)ccc2C1 (stereo not drawn) | > 1000 nM |

* * *

Catalogue of compounds with associated EC50
Biological target: human S1PR4 (Homo sapiens)
Construct: host or cells: CHO-K1
Assay: Intracellular Ca2+ release (FLIPR) agonist potency, S1P4
Type: cell-based
Settings: recombinant CHO-K1 cells expressing human S1PR4, aequorin, Gq/i5; Calcium 5 FLIPR; read-out: S1P4 EC50
Measured metric: EC50

| Compound | Target or system | Measured metric | Measured value |
| --- | --- | --- | --- |
| CCc1cccc(Cl)c1COc1ccc2c(c1)OCC(OCC(=O)O)C2 (stereo not shown) | human S1PR4 (Homo sapiens) | EC50 | > 1000 nM |
| COc1ccccc1COc1ccc2c(c1)CCC(OCC(=O)O)C2 (stereo not shown) | human S1PR4 (Homo sapiens) | EC50 | > 1000 nM |
| CCc1cccc(F)c1COc1ccc2c(c1)OCC(NCC(=O)O)C2 (stereo not shown) | human S1PR4 (Homo sapiens) | EC50 | < 1000 nM |
| O=C(O)C1CN(C2COc3cc(OCCOc4ccc(F)cc4)ccc3C2)C1 (stereo not shown) | human S1PR4 (Homo sapiens) | EC50 | > 1000 nM |

* * *

Molecular target: human S1PR4 (Homo sapiens)
Construct: host or cells: CHO-K1
Assay: Intracellular Ca2+ release (FLIPR) agonist potency, S1P4
Type: cell-based
Settings: recombinant CHO-K1 cells expressing human S1PR4, aequorin, Gq/i5; Calcium 5 FLIPR; read-out: S1P4 EC50
pEC50: −log10 of the molar value.
Catalogue of compounds with associated pEC50

| Compound | pEC50 |
| --- | --- |
| O=C(O)C1CN(C2COc3cc(OCCCCOc4cccc(F)c4)ccc3C2)C1 (stereo not drawn) | < 6.00 |
| O=C(O)C1CN(C2COc3cc(OCC4CCCCC4)ccc3C2)C1 (stereo not drawn) | < 6.00 |
| CCc1cccc(Cl)c1COc1ccc2c(c1)OCC(N(C)CC(=O)O)C2 (stereo not drawn) | > 6.00 |
| O=C(O)C1CN(C2COc3cc(OCc4ccc(C(F)(F)F)cc4)ccc3C2)C1 (stereo not drawn) | < 6.00 |
| O=C(O)CCNC1CCc2cc(/C=C/c3cccc(Cl)c3)ccc2C1 (stereo not drawn) | > 6.00 |
| Cc1cccc(F)c1COc1ccc2c(c1)OCC(N1CC(C(=O)O)C1)C2 (stereo not drawn) | < 6.00 |
| CCc1cccc(Cl)c1COc1ccc2c(c1)OCC(NC13CC(C(=O)O)(C1)C3)C2 (stereo not drawn) | > 6.00 |
| CN(CC(=O)O)C1COc2cc(-c3ccc(OCc4ccccc4)cc3)ccc2C1 (stereo not drawn) | < 6.00 |
| O=C(O)C1CN(C2COc3cc(OCc4cccc(F)c4F)ccc3C2)C1 (stereo not drawn) | < 6.00 |

* * *

Catalogue of compounds with associated EC50
Target: human S1PR5 (Homo sapiens, UniProt Q9H228)
Construct: host or cells: CHO-K1
Sequence (Q9H228 whole entry): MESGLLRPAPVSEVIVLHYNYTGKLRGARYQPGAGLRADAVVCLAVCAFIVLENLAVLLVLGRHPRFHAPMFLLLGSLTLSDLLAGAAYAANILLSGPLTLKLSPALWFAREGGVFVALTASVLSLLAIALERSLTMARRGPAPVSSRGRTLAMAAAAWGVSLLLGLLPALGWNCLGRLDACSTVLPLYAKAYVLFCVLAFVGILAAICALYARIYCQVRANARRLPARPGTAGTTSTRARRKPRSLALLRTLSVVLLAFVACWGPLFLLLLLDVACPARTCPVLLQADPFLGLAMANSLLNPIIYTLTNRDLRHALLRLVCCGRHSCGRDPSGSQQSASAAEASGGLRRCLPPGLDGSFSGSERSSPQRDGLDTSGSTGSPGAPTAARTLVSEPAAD
Assay: Intracellular Ca2+ release (FLIPR) agonist potency, S1P5
Type: cell-based
Settings: recombinant CHO-K1 cells expressing human S1PR5, aequorin, Gq/i5; Calcium 5 FLIPR; read-out: S1P5 EC50 range
Measured metric: EC50

| Compound | Target or system | Measured metric | Measured value |
| --- | --- | --- | --- |
| O=C(O)COC1CCc2cc(OCc3c(Cl)cccc3C3CC3)ccc2C1 (centres unmarked) | human S1PR5 (Homo sapiens, UniProt Q9H228) | EC50 | < 10 nM |
| Cc1c(F)cccc1COc1ccc2c(c1)OCC(N1CC(C(=O)O)C1)C2 (centres unmarked) | human S1PR5 (Homo sapiens, UniProt Q9H228) | EC50 | 100 to 1000 nM |
| O=C(O)C1CN(C2COc3cc(OCc4c(F)cccc4Cl)ccc3C2)C1 (centres unmarked) | human S1PR5 (Homo sapiens, UniProt Q9H228) | EC50 | 100 to 1000 nM |
| O=C(O)COC1CCc2cc(OCc3cc(Cl)ccc3Cl)ccc2C1 (centres unmarked) | human S1PR5 (Homo sapiens, UniProt Q9H228) | EC50 | 1000 to 10000 nM |
| O=C(O)CNC1COc2cc(OCc3ccc(OCc4cccc(Cl)c4)cc3)ccc2C1 (centres unmarked) | human S1PR5 (Homo sapiens, UniProt Q9H228) | EC50 | < 10 nM |
